Cited source for all entries: ChEMBL document CHEMBL1201862

Recorded EC50, one value per entry.
assay: inhibitors of intracellular T. cruzi replication, confirmation, NIH3T3 host cells, beta-gal luminescence (AID 2044); assay type: functional, cell-based;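 also: intracellular parasites grown in NIH/3T3 mouse fibroblasts as host cells; luminescent beta-galactosidase reporter signal from transgenic T. cruzi replicating inside host cells; inhibitors lower the luminescence signal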
The source made the active and inactive calls.

COc1cccc(CNCCc2cccc(F)c2)c1OC : 828 nM (active)
Cc1ccc(S(=O)(=O)c2nnn3c2nc(NC2CCN(Cc4ccccc4)CC2)c2ccccc23)cc1C : 1240 nM (active)
Cc1ccc2nc(N(CCN(C)C)C(=O)c3ccc4c(c3)OCCO4)sc2c1 : 104 nM (active)
C=CCn1c(SCc2ccccc2Cl)nnc1-c1sc2nc(C)cc(C)c2c1N : 161 nM (active)
COc1ccc(C(CC(=O)Nc2cc(OC)cc(OC)c2)n2cccc2)cc1 (stereo unspecified) : 2450 nM (active)

Ask: Fill blank: measured EC50 of the molecule CC1(C)C([N+](=O)[O-])C(c2ccc(Cl)cc2)NC(c2ccc(Cl)cc2)C1[N+](=O)[O-] (stereo unspecified) is ____.
Reply: 2000 nM (active)

Ask: Fill blank: measured EC50 of the molecule O=C(Nc1nc(-c2ccccn2)cs1)c1cc2ccccc2o1 is ____.
Reply: 1460 nM (active)

###

Recorded IC50, one value per entry.
Molecular target: Bifunctional protein GlmU (Mycobacterium tuberculosis, UniProt P9WMN3)
Sequence (P9WMN3 whole entry): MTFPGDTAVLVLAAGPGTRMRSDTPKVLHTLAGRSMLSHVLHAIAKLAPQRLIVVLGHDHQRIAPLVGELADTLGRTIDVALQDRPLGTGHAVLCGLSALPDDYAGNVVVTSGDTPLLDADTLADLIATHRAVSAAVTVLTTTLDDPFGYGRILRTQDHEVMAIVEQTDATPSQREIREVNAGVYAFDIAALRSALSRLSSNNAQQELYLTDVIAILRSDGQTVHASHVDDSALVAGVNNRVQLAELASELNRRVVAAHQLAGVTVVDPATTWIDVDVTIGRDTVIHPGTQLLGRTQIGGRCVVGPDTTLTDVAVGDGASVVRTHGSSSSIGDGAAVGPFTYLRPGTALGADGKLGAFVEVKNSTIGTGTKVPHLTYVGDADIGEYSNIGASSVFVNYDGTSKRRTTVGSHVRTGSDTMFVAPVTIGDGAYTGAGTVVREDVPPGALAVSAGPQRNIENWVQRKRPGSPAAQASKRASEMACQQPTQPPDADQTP
Test: Inhibitors of Mycobacterial Glucosamine-1-phosphate acetyl transferase (GlmU). Secondary screen.
Set-up: species or system Mycobacterium tuberculosis H37Rv
Calls of active or inactive are those of the source.

CC(=O)NC1=NC(=O)/C(=C/c2cc(C)n(-c3cccc(C(=O)O)c3)c2C)S1 : 93.8 µM (active)
N=C1S/C(=C\c2ccc(-c3ccccc3C(=O)O)o2)C(=O)N1c1ccc2c(c1)OCO2 : 153 µM (active)
O=C(O)c1ccc(Nc2cc(Cl)c3nonc3c2[N+](=O)[O-])cc1 : 92 µM (active)

Ask: Fill blank: measured IC50 of the molecule COC(=O)c1cc(O)cc(OC)c1Oc1cc(C)cc(O)c1C(=O)O [ASTERRIC ACID] is ____.
Reply: 82.7 µM (active)

###

Recorded EC50, one value per entry.
biological target: Short transient receptor potential channel 4 (Mus musculus, UniProt Q9QUQ5); assay: mouse TRPC4 channel inhibitors, dose response, cell-based, HEK293 TRPC4/mu-opioid, Fluo-4 calcium (AID 434942); format: functional;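 also: potency of inhibitors blocking the TRPC4 calcium response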
Sequence (Q9QUQ5 whole entry): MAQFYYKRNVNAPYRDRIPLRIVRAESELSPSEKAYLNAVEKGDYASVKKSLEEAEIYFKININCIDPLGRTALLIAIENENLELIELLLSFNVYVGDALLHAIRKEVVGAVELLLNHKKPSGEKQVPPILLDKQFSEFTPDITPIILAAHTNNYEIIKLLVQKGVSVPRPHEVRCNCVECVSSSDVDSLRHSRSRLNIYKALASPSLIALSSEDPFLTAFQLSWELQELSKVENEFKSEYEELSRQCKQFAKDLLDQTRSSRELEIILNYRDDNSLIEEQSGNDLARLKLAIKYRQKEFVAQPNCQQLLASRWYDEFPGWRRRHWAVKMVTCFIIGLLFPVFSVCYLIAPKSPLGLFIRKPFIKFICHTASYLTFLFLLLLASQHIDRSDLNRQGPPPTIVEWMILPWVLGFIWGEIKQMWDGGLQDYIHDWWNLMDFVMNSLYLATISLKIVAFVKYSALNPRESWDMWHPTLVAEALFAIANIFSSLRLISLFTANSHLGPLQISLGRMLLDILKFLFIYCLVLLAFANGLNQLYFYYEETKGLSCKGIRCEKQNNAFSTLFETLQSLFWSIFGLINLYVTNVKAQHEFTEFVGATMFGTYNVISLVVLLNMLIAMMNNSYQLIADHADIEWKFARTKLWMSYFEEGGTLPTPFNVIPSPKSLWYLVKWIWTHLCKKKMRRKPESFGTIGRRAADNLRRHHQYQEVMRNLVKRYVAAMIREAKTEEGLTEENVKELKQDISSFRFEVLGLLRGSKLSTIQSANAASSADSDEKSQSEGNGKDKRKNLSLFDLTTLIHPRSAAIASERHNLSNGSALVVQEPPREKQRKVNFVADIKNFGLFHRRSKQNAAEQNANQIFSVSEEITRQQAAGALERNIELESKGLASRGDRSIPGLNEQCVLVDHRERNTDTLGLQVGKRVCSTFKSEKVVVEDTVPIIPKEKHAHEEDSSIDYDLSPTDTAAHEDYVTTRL
Active and inactive are the calls of the source.

Take a look at these entries with their results.
O=C(Nc1ccccc1N1CCN(C(=O)c2ccccc2)CC1)c1ccc(Br)o1 : 596 nM (active)
CCCNCc1cc(Br)ccc1OCC(=O)NCCc1ccccc1 : 841 nM (active)
CCC(C)NCCOCCOc1ccccc1-c1ccccc1 (centres undefined) : 1190 nM (active)

API: the following record is the query input.
Ask: Give Short transient receptor potential channel 4 (Mus musculus, UniProt Q9QUQ5) EC50 for Clc1ccc(COc2ccccc2CNCc2cccnc2)cc1
Reply: 2990 nM (active)

###

Recorded AC50, one value per entry.
target: UniProt:P08684; details: Potency
Sequence (P08684 whole entry): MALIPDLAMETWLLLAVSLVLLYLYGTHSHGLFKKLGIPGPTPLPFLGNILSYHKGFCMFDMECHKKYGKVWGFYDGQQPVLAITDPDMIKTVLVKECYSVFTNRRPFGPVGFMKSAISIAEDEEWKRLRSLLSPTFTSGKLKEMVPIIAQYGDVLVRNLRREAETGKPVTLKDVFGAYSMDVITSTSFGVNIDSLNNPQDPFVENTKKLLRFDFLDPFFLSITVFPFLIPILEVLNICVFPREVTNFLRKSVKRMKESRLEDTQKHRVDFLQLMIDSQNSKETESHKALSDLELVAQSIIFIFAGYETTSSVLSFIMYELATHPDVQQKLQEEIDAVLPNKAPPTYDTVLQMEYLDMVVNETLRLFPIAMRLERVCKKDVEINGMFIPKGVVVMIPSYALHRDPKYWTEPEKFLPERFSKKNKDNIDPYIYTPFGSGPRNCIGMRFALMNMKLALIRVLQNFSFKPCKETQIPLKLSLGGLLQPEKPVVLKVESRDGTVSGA

Take a look at these entries with their results.
CC(=O)c1c(O)c(C)c(O)c2c1OC1=CC(=O)C(C(C)=O)C(=O)C12C (centres undefined) : 0.159 µM (inconclusive)
O=C1c2c(O)cc(O)cc2OC(c2ccc(O)c(O)c2)C1O (centres undefined) : 25.1 µM (inconclusive)
CCCN(CC1CC1)c1nc(C)nc(Nc2c(Cl)cc(Cl)cc2Cl)c1Cl : 12.6 µM (inconclusive)

API: the following record is the query input.
Ask: Fill blank: measured AC50 of the compound CCC12C=C(/C=C/c3ccccc3)C(CC)(C1)C(c1ccccc1)CC2=O (centres undefined) is ____.
Reply: 6.31 µM (inconclusive)

###

test: cytotoxicity toward NIH3T3 fibroblasts, dose response, counter-screen, cell-based, ATP luminescence, mouse fibroblasts (AID 2010); type: functional;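 also: cells exposed to compound for about 90 hours before reading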
Activity calls are given as the source filed them.
value type: EC50

Cc1cccc(N/C=C(\[N+](=O)[O-])S(=O)(=O)c2ccccc2)c1C : > 60 µM (inconclusive)
CCN1CCN(c2ccc(S(=O)(=O)N3CCCCC3)cc2NC(=O)Cc2ccc(Cl)c(Cl)c2)CC1 : 6.52 µM (active)
Cc1cc(/C=N/n2c(COc3ccccc3C)nc3ccccc3c2=O)c(O)c([N+](=O)[O-])c1 : 6.51 µM (active)
COc1ccccc1CN1CCN(Cc2nc(-c3cccs3)no2)CC1 : > 60 µM (not active)
Nc1c(C(=O)Nc2ccccc2)c2nc3ccccc3nc2n1-c1ccc(O)cc1 : 15.9 µM (active)

Ask: Fill blank: measured EC50 of the compound O=C(CSc1nc(C2CC2)nc2ccccc12)N1c2ccccc2Sc2ccccc21 is ____.
Reply: > 60 µM (not active)

Ask: Fill blank: measured EC50 of the compound CCNS(=O)(=O)c1ccc(NC(=O)Nc2cccc(C(F)(F)F)c2)cc1 is ____.
Reply: > 60 µM (not active)

Ask: Fill blank: measured EC50 of the compound COc1cccc(CNCCc2cccc(F)c2)c1OC is ____.
Reply: > 60 µM (not active)

Ask: Fill blank: measured EC50 of the compound c1ccc(Cn2c3ccccc3c3nnc(SCCN4CCCCC4)nc32)cc1 is ____.
Reply: > 60 µM (not active)

Ask: Fill blank: measured EC50 of the compound Cc1cccc(C)c1Nc1c(-c2ccccn2)nc2ccccn12 is ____.
Reply: 6.81 µM (active)

Ask: Fill blank: measured EC50 of the compound CCN(CC(=O)NCc1cccs1)C(=O)c1ccc([N+](=O)[O-])o1 is ____.
Reply: > 30 µM (not active)

Ask: Fill blank: measured EC50 of the compound c1ccc2c(Nc3nnc(-c4ccncc4)s3)cccc2c1 is ____.
Reply: > 60 µM (not active)

###

assay: inhibitors of HIV Env-driven cell fusion, dose response, cherry-pick (AID 652057); type: functional, cell-based
The source made the active and inactive calls.
value type: AC50

Take a look at these entries with their results.
O=C(C[C@H]1CC[C@H]2[C@@H](COC[C@H](O)CN2C(=O)Nc2ccc(Cl)c(Cl)c2)O1)NCc1ccncc1 : 31.5 µM (active)
O=c1cccc2n1CC1CC2CN(c2nc(N3CCCCC3)nc(N3CCCCC3)n2)C1 (centres undefined) : 1.69 µM (active)
CCC(=O)Nc1ccc2c(c1)OC[C@H](C)N(CC1CCCCC1)C[C@H](C)[C@@H](OC)CN(C)C2=O : 2.93 µM (active)

API: the following record is the query input.
Ask: Fill blank: measured AC50 of the molecule CCOC(=O)c1cccc(NS(=O)(=O)c2ccc(NC(C)=O)cc2)c1 is ____.
Reply: 4.26 µM (active)

###

Recorded EC50, one value per entry.
Target: Streptokinase A (Streptococcus pyogenes serotype M1)
Sequence (P10520 whole entry): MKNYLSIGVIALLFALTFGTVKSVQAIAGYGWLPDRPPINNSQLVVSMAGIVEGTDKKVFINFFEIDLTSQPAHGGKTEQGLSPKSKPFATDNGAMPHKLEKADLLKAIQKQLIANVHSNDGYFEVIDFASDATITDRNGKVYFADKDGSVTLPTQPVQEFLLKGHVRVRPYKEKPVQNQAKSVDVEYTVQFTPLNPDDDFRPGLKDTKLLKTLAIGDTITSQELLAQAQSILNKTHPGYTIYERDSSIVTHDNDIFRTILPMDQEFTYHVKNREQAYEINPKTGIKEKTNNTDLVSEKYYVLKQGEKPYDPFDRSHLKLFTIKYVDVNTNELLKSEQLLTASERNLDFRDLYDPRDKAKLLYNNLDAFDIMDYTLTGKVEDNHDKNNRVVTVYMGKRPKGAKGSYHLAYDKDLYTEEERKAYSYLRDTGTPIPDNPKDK
Experiment: S. pyogenes streptokinase expression inhibitors, potency, dose response, plasminogen activation absorbance, OD405 (AID 1914);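 also: secreted streptokinase activity via plasminogen activation per viability signal from cell pellet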
Type: functional, Streptococcus pyogenes M1 GAS
The source made the active and inactive calls.

CCOC(=O)c1sc2ncnc(NCC(c3cccs3)N(C)C)c2c1C (stereo not given) : > 150 µM (not active)
COc1ccc(OC)c(NC(=O)NC2CCCc3ccccc32)c1 (stereo not given) : > 150 µM (not active)
CCCN(CC1CC1)c1nc(C)nc(Nc2c(Cl)cc(Cl)cc2Cl)c1Cl : 1.31 µM (active)
COc1ccc(Nc2nc(NN)nc(Nc3ccc(OC)cc3)n2)cc1 : > 150 µM (not active)
Cc1ccc2nc(SCC(=O)c3ccc(Cl)s3)[nH]c2c1 : > 150 µM (not active)
O=C(Nc1cccc(-c2ccc(N3CCOCC3)nn2)c1)c1ccccc1Cl : > 150 µM (not active)
COc1ccccc1-c1nnc(NC(=O)c2ccc(S(=O)(=O)N(C)CC3CCCO3)cc2)o1 (stereo not given) : > 150 µM (not active)
O=C(Nc1nc(-c2ccc3c(c2)OCCO3)cs1)c1ccco1 : > 150 µM (not active)

Ask: Fill blank: measured EC50 of the compound N#Cc1c(O)nc(SCC(=O)N2c3ccccc3Sc3ccccc32)nc1-c1ccccc1 is ____.
Reply: > 150 µM (not active)

Ask: Fill blank: measured EC50 of the compound CCOC(=O)[C@@H]1[C@H]2COc3ccccc3[C@H]2N2C(=O)N(c3ccc(C(F)(F)F)cc3)C(=O)[C@]12C is ____.
Reply: 17 µM (inconclusive)
